# Assay System: ALK2 (Homo sapiens, UniProt Q04771, Q207D)
# Construct: His tag (N, cleaved yes); made in house; host or cells: Sf9 insect cells (baculovirus)
# Sequence (Q04771 201-499 Q207D): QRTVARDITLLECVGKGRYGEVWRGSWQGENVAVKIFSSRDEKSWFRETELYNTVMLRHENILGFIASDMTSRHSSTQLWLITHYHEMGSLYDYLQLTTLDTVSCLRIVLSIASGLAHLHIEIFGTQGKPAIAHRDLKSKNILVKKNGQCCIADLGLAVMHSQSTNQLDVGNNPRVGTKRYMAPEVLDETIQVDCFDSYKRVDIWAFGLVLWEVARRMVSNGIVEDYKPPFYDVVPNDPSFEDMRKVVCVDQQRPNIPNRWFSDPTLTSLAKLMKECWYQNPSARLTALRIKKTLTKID
# Protocol Details: Thermal shift kinase assay
# Format: binding
# Setup Conditions: ALK2 ΔTm minus ALK5 ΔTm
Recorded Endpoint: ΔTm Diff. (°C)
Respond numerically; units are °C and should not be typed.

## Input Tell me ΔTm Diff. reported for Nc1ncc(-c2cccc(N3CCNCC3)c2)cc1-c1ccnc2ccccc12
## Output 2.5

## Input Tell me ΔTm Diff. reported for Nc1ncc(-c2ccc(N3CCNCC3)cc2)cc1-c1ccnc2ccccc12
## Output 3.4

## Input Tell me ΔTm Diff. reported for COc1ccc(-c2cc(-c3ccc(N4CCNCC4)cc3)cnc2N)cc1
## Output 4.5

## Input Tell me ΔTm Diff. reported for Nc1ncc(-c2ccc(N3CCNCC3)cc2)cc1-c1ccc2c(c1)OCCO2
## Output 4.0

## Input Tell me ΔTm Diff. reported for CNc1ncc(-c2ccc(N3CCNCC3)cc2)cc1-c1cc(OC)c(OC)c(OC)c1
## Output −0.5

## Input Tell me ΔTm Diff. reported for COc1cc(-c2cc(-c3ccc(N4CCNCC4)cc3)cnc2C)cc(OC)c1OC
## Output 4.0

## Input Tell me ΔTm Diff. reported for COc1cc(-c2cc(-c3cccc(N4CCNCC4)c3)cnc2N)cc(OC)c1OC
## Output 0.8

## Input Tell me ΔTm Diff. reported for COc1cc(-c2cc(-c3cccc(NS(C)(=O)=O)c3)cnc2N)cc(OC)c1OC
## Output 0.9

## Input Tell me ΔTm Diff. reported for COc1cc(OC)cc(-c2cncc(-c3ccc(N4CCNCC4)cc3)c2)c1
## Output 4.7

====

# Assay System: ALK2 (Homo sapiens, UniProt Q04771, Q207D)
# Construct: His tag (N, cleaved yes); made in house; host or cells: Sf9 insect cells (baculovirus)
# Protocol Details: Thermal shift kinase assay
# Assay type: binding
# Setup Conditions: ALK2 ΔTm minus ALK5 ΔTm
Recorded Endpoint: ΔTm Diff. (°C)
Respond numerically; units are °C and should not be typed.

Use the examples below as a reference point.
COc1cc(-c2cc(-c3ccc(N4CCNCC4)cc3)cnc2N)cc(OC)c1OC | 1.2
COc1cccc(-c2cc(-c3ccc(N4CCNCC4)cc3)cnc2N)c1 | 3.8
Nc1ncc(-c2ccc(N3CCNCC3)cc2)cc1-c1cccc2ncccc12 | 4.2
COc1cc(-c2cc(-c3ccc(N4CCNCC4)cc3)cnc2N(C)C)cc(OC)c1OC | 0.1
COc1cc(OC)cc(-c2cc(-c3ccc(N4CCNCC4)cc3)cnc2N)c1 | 3.5

## Input Tell me ΔTm Diff. reported for COc1cc(-c2cc(-c3ccc(N4CCNCC4)cc3)cnc2N)ccc1Cl
## Output 2.7

## Input Tell me ΔTm Diff. reported for COc1cc(-c2cc(-c3cccc(O)c3)cnc2N)cc(OC)c1OC [Compound K02288, reference compound]
## Output 2.0

## Input Tell me ΔTm Diff. reported for COc1cc(-c2cc(-c3ccc(N4CCNCC4)cc3)cnc2N)ccc1C
## Output 3.8

Ref: patent US20170305883A1
